- TARGET: T1, murine IL-11 (mouse, UniProt P47873 22-199)
- T1 sequence: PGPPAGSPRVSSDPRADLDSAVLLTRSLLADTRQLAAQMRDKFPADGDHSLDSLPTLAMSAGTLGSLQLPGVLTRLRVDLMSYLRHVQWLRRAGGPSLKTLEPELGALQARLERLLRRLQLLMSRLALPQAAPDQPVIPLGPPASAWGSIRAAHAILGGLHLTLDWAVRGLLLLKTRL
- ASSAY_NAME: cell-based or functional assay
PARAMETER: IC50, RGA 2 (nM)

>>> endpoint_result("TPP-31293 (antibody, IgG4, V domains shown, hIgG4 SPLE, lambda) VH: EVQLLESGGGLVQPGGSLRLSCAASGFTFSHYDMNWVRQAPGKGLEWVGVISYDGSNKFYADFVKGRFTISRDNSKNTLYLQMNSLRAEDTAVYYCARTPGSHFDYWGQGTLVTVSS VL: QSVLTQPPSASGTPGQRVTISCSGSSSNIGNNAVNWYQQLPGTAPKLLIYYDDLLPSGVPDRFSGSKSGTSASLAISGLRSEDEADYYCSAWDDSLNGVVFGGGTKLTVL")
13
>>> endpoint_result("TPP-31278 (antibody, IgG4, V domains shown, hIgG4 SPLE, lambda) VH: EVQLLESGGGLVQPGGSLRLSCAASGFTFSHYDMNWLRQAPGKGLEWVGVISYDGSNKFYADFVKGRFTISRDNSKNTLYLQMNSLRAEDTAVYYCARTPGSHFDYWGQGTLVTVSS VL: QSVLTQPPSASGTPGQRVTISCSGSSSNIGNNYVNWYQQLPGTAPKLLIYYDDLLPSGVPDRFSGSKSGTSASLAISGLRSEDEADYYCSAWDDSLNGVVFGGGTKLTVL")
0.08
>>> endpoint_result("TPP-31311 (antibody, IgG4, V domains shown) VH: EVQLLESGGGLVQPGGSLRLSCAASGFTFSHYDMNWLRQAPGKGLEWVGVISYDSSNKFYADFVKGRFTISRDNSKNTLYLQMNSLRAEDTAVYYCARTPGSHFDYWGQGTLVTVSS VL: QSVLTQPPSASGTPGQRVTISCSGSSSNIGNNAVNWYQQLPGTAPKLLIYYDDLLPSGVPDRFSGSKSGTSASLAISGLRSEDEADYYCSAWDDSLNAVVFGGGTKLTVL")
127
